Entries and their Emax values follow.
Target: soluble guanylate cyclase (sGC) (Homo sapiens (Human), UniProt Q02108+Q02153)
Sequence (Q02153 whole entry): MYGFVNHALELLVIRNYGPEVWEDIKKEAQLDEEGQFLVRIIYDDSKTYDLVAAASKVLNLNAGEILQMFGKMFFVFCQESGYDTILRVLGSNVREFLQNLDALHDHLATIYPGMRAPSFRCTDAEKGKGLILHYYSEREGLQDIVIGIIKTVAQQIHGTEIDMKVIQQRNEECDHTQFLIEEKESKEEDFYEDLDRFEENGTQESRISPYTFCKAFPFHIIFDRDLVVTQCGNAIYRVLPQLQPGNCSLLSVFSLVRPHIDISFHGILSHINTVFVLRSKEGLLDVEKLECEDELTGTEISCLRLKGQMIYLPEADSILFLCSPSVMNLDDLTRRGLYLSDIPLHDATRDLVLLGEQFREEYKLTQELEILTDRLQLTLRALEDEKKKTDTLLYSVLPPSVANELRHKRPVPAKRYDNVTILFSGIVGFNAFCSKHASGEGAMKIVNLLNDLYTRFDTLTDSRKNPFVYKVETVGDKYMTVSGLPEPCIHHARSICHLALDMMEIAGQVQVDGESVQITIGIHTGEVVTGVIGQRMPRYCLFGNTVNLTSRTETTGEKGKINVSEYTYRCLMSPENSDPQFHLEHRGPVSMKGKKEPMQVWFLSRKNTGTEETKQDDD
Sequence (Q02108 whole entry): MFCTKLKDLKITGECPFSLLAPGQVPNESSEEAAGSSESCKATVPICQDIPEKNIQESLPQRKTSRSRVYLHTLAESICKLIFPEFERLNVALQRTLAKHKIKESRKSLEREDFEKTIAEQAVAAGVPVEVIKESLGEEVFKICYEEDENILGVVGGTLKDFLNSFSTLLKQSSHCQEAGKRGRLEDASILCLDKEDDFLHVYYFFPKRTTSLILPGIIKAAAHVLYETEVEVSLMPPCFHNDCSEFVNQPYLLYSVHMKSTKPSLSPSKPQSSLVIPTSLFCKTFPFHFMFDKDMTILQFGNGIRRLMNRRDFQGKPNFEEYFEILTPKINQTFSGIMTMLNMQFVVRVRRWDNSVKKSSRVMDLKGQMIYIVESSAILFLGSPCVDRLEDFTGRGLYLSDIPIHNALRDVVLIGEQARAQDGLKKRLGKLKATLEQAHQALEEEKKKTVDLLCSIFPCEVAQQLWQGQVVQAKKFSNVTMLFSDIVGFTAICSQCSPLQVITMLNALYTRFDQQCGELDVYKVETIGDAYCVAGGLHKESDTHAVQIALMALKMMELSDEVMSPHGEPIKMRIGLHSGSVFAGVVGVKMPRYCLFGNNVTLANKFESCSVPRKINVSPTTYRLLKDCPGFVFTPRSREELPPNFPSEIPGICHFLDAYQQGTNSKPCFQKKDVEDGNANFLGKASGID
Test: sGC-HEK-cGMP assay run with SNP incubation (HEK WC assay)
Format: cell-based
Details: read-out: HEK WC Assay (% Emax at 30 μM with 10 uM SNP)

molecule | Emax
Oc1cc(O)nc(-c2cc(-c3ccon3)n(Cc3ccccc3F)n2)n1 [Compound I-261] | 0 to 10%
CC(F)(F)C(=O)Nc1cnc(-c2cc(-c3ccon3)n(Cc3ccccc3F)n2)nc1N [Compound I-226] | 60 to 80%
CCCC(F)(F)C(=O)Nc1cnc(-c2cc(-c3ccon3)n(Cc3ccccc3F)n2)nc1N [Compound I-252] | 60 to 80%
Oc1nc(-c2cc(-c3ccon3)n(Cc3ccccc3F)n2)ncc1Cl [Compound I-266] | 60 to 80%

Reference for the values: patent US10189809B2
